Collected IC50 values appear next to each entry.
- Tested on: PANC-1 cells
- TEST_METHOD_NOTES: cell viability assay in PANC-1 cells (compound alone, + 100 ng/ml TNFa, + 300 ng/ml TRAIL)
- Assay type: cell-based
- STUDY_CONDITIONS: with 100 ng/ml TNFa; Tables 6-10; read-out: IC50 (μM) in cell viability assay in PANC-1 cells: Compound + 100 ng/ml TNFa
QUANTITY: IC50 (µM)

CN[C@@H](C)C(=O)N[C@H](C(=O)N1CCC[C@H]1C(=O)N[C@H](C)c1ccccc1)[C@H](C)NC(=O)CCCCC(=O)N[C@@H](C)[C@H](NC(=O)[C@H](C)NC)C(=O)N1CCC[C@H]1C(=O)N[C@H](C)c1ccccc1	0.208
CN[C@@H](C)C(=O)N[C@H](C(=O)N1C[C@@H](NC(=O)c2cccc(C(=O)N[C@H]3C[C@@H](C(=O)N[C@@H]4CCCc5c(O)cccc54)N(C(=O)[C@@H](NC(=O)[C@H](C)NC)C(C)(C)C)C3)c2)C[C@H]1C(=O)N[C@@H]1CCCc2c(O)cccc21)C(C)(C)C (single isomer, unassigned)	0.044
CN[C@@H](C)C(=O)N[C@@H](CCCCNC(=O)C[C@H](NC(=O)[C@H](C)NC)C(=O)N1CCC[C@H]1C(=O)N[C@@H]1CCCc2ccccc21)C(=O)N1CCC[C@H]1C(=O)N[C@@H]1CCCc2ccccc21	0.046
CN[C@@H](C)C(=O)N[C@@H](CCCCCC[C@H](NC(=O)[C@H](C)NC)C(=O)N1C[C@@H](F)C[C@H]1C(=O)N[C@@H]1CCCc2ccccc21)C(=O)N1C[C@@H](F)C[C@H]1C(=O)N[C@@H]1CCCc2ccccc21	0.057

###

- Tested on: PANC-1 cells
- TEST_METHOD_NOTES: cell viability assay in PANC-1 cells (compound alone, + 100 ng/ml TNFa, + 300 ng/ml TRAIL)
- Format: cell-based
- STUDY_CONDITIONS: with 100 ng/ml TNFa; Tables 6-10; read-out: IC50 (μM) in cell viability assay in PANC-1 cells: Compound + 100 ng/ml TNFa
QUANTITY: IC50

CN[C@@H](C)C(=O)N[C@H](C(=O)N1C[C@@H](NC(=O)c2cccc(C(=O)N[C@H]3C[C@@H](C(=O)N[C@@H]4CCCc5ccc(OC)cc54)N(C(=O)[C@@H](NC(=O)[C@H](C)NC)C(C)(C)C)C3)c2)C[C@H]1C(=O)N[C@@H]1CCCc2ccc(OC)cc21)C(C)(C)C [Compound 44]	0.215 µM
CN[C@@H](C)C(=O)N[C@H](C(=O)N1C[C@@H](NC(=O)c2cc(C(=O)N[C@H]3C[C@@H](C(=O)N[C@H](C)Cc4ccccc4)N(C(=O)[C@@H](NC(=O)[C@H](C)NC)C(C)(C)C)C3)[nH]n2)C[C@H]1C(=O)N[C@H](C)Cc1ccccc1)C(C)(C)C [Compound 11]	0.834 µM
CN[C@@H](C)C(=O)N[C@@H](CCCCCC[C@H](NC(=O)[C@H](C)NC)C(=O)N1CCC[C@H]1CNC(=O)c1c(OC)cccc1OC)C(=O)N1CCC[C@H]1CNC(=O)c1c(OC)cccc1OC [Compound 35]	> 1 µM
CN[C@@H](C)C(=O)N[C@H](C(=O)N1C[C@@H](n2cc(CCC(=O)N[C@@H]3CC(C(=O)N[C@H](C)c4ccccc4)N(C(=O)C(NC(=O)[C@H](CO)NC)C(C)(C)C)C3)nn2)C[C@H]1C(=O)N[C@@H]1CCCc2ccccc21)C(C)(C)C (stereo partly drawn) [Compound 205]	0.04 µM
CN[C@@H](C)C(=O)N[C@H](C(=O)N1C[C@@H](NC(=O)CC[C@@H](NC(=O)[C@H](NC(=O)[C@@H](C)NC)C(C)(C)C)C(=O)N[C@H]2CCCc3ccccc32)C[C@H]1C(=O)N[C@H](C)c1ccccc1)C(C)C [Compound 167]	0.06 µM
CN[C@@H](C)C(=O)N[C@H](C(=O)N[C@@H](CCNC(=O)c1cccc(C(=O)N[C@H]2C[C@@H](C(=O)N[C@@H]3CCCc4ccccc43)N(C(=O)[C@@H](NC(=O)[C@H](C)NC)C(C)(C)C)C2)c1)C(=O)N[C@H](C)C(C)C)C(C)(C)C [Compound 176]	0.0199 µM
CCCC[C@H](C)NC(=O)c1cc(C(=O)N[C@H]2C[C@@H](C(=O)N[C@@H]3CCCc4ccccc43)N(C(=O)[C@@H](NC(=O)[C@H](C)NC)C(C)(C)C)C2)cc(C(=O)N[C@H]2C[C@@H](C(=O)N[C@@H]3CCCc4ccccc43)N(C(=O)[C@@H](NC(=O)[C@H](C)NC)C(C)(C)C)C2)c1 [Compound 130]	0.018 µM
CN[C@@H](C)C(=O)N[C@H](C(=O)N[C@@H](CCNC(=O)c1ccc2cc(C(=O)N[C@H]3C[C@@H](C(=O)N[C@@H]4CCCc5ccccc54)N(C(=O)[C@@H](NC(=O)[C@H](C)NC)C(C)(C)C)C3)ccc2c1)C(=O)N[C@H](C)C(C)C)C(C)C [Compound 185]	0.008 µM
CN[C@@H](C)C(=O)N[C@@H](CCCCCC[C@H](NC(=O)[C@H](C)NC)C(=O)N1CCC[C@H]1CNC(=O)c1ccccc1O)C(=O)N1CCC[C@H]1CNC(=O)c1ccccc1O [Compound 20]	> 1 µM
CN[C@@H](C)C(=O)N[C@H](C(=O)N1C[C@@H](NC(=O)c2cccc(C(=O)N[C@H]3C[C@@H](C(=O)NCCc4ccc(O)cc4)N(C(=O)[C@@H](NC(=O)[C@H](C)NC)C(C)(C)C)C3)c2)C[C@H]1C(=O)NCCc1ccc(O)cc1)C(C)(C)C [Compound 3]	0.5 µM
CN[C@@H](C)C(=O)N[C@H](C(=O)N1C[C@@H](NC(=O)c2cccc(C(=O)N[C@H]3C[C@@H](C(=O)NC4CCCc5cc(F)ccc54)N(C(=O)[C@@H](NC(=O)[C@H](C)NC)C(C)(C)C)C3)c2)C[C@H]1C(=O)NC1CCCc2cc(F)ccc21)C(C)(C)C (single isomer, unassigned) [Compound 73]	0.0698 µM
CN[C@@H](C)C(=O)N[C@H](C(=O)N1CCC[C@H]1C(=O)N[C@H]1c2ccccc2C[C@@H]1OCCCCCCO[C@H]1Cc2ccccc2[C@@H]1NC(=O)[C@@H]1CCCN1C(=O)[C@@H](NC(=O)[C@H](C)NC)C(C)(C)C)C(C)(C)C [Compound 122]	0.0015 µM
CN[C@@H](C)C(=O)N[C@H](C(=O)N1C[C@@H](NC(=O)c2cccc(C(=O)N[C@H]3C[C@@H](C(=O)N[C@H](C)c4ccccc4)N(C(=O)[C@@H](NC(=O)[C@H](CO)NC)C(C)(C)C)C3)c2)C[C@H]1C(=O)N[C@@H]1CCCc2ccccc21)C(C)(C)C [Compound 173]	0.01 µM
CN[C@@H](C)C(=O)NC(C(=O)N1C[C@@H](NC(=O)c2cccc(C(=O)N[C@H]3CC(C(=O)N[C@H](C)c4cccc5ccccc45)N(C(=O)[C@@H](NC(=O)[C@H](C)NC)C(C)(C)C)C3)c2)CC1C(=O)NC(C)c1cccc2ccccc12)C(C)(C)C (stereo partly drawn) [Compound 41]	0.452 µM
CN[C@@H](C)C(=O)N[C@H](C(=O)N[C@@H](CCNC(=O)c1cccc(C(=O)N[C@H]2C[C@@H](C(=O)N[C@@H]3CCCc4ccccc43)N(C(=O)[C@@H](NC(=O)[C@H](C)NC)C(C)(C)C)C2)c1)C(=O)N[C@@H]1CCCc2ccccc21)C(C)(C)C [Compound 169]	0.01 µM
